Source listed as the supplement of paper PMC8149375.

- System: TK-10
- test.summary: GI50, drug alone; higher = less potent
- condition: treatment: drug alone; 5 days
attribute.measured: GI50, drug alone (µM)
Write it as a number; the unit µM goes unstated.

Req: For the compound Cc1cc(Nc2cc(CN3CCOCC3)c3nc(C)c(Cc4ccc(Cl)cc4F)n3n2)[nH]n1 , give its reported GI50, drug alone.
Resp: 3.03

Req: Give GI50, drug alone for O=C(Nc1c[nH]nc1-c1nc2cc(CN3CCOCC3)ccc2[nH]1)NC1CC1
Resp: 0.456

Req: Write down GI50, drug alone measured for item O=C(Nc1cccc(Nc2ncc(Br)c(NCCc3cnc[nH]3)n2)c1)N1CCCC1
Resp: 5.33

Req: For the compound S=C(NCc1ccc2c(c1)OCO2)N1CCN(c2ncnc3c2oc2ccccc23)CC1 , report GI50, drug alone.
Resp: 4.83

Req: Supply GI50, drug alone value. Item: O=c1[nH]c2ccc(Cl)cc2c(N[C@@H]2CN3CCC2CC3)c1-c1nc2ccccc2[nH]1
Resp: 0.129

====

- Tested on: SN12C
- test.summary: minimum viability across doses, drug alone, relative to DMSO (fraction); higher = less growth inhibition
- condition: treatment: drug alone; 5 days
attribute.measured: minimum viability across doses
Please give the numeric answer without any surrounding text.

Req: Indicate its recorded minimum viability across doses; the compound in question is NC1(Cc2ccc(Cl)cc2)CCN(c2ncnc3[nH]ccc23)CC1
Resp: 0.431

Req: Report minimum viability across doses for CNC(=O)c1cc(Oc2ccc(NC(=O)Nc3cc(C(C)(C)C)nn3-c3ccc4ncccc4c3)c(F)c2)ccn1 [DCC-2036 (Rebastinib)]
Resp: 0.0299

Req: Output minimum viability across doses of C[C@@H](Oc1cc(-c2cnn(C3CCNCC3)c2)cnc1N)c1c(Cl)ccc(F)c1Cl
Resp: 0.154

Req: For the compound CN1CCN(c2nc(C3=C(c4c[nH]c5ccccc45)C(=O)NC3=O)c3ccccc3n2)CC1 , report minimum viability across doses.
Resp: 0.91

Req: Supply recorded minimum viability across doses for Cl.N=C(N)NC(=N)NCCc1ccccc1 [Phenformin hydrochloride] here.
Resp: 0.0912

Req: Return the recorded minimum viability across doses value; entry: COc1ccc(-c2ccc3c(N4CCOC[C@@H]4C)nc(N4CCOC[C@@H]4C)nc3n2)cc1CO
Resp: 0.163

Req: Fill in minimum viability across doses for record CCS(=O)(=O)Nc1ccc2c(c1)/C(=C(/Nc1ccc(CN3CCCCC3)cc1)c1ccccc1)C(=O)N2
Resp: 0.00306

====

- Tested on: A498
- test.summary: GI50, drug alone; higher = less potent
- condition: treatment: drug alone; 5 days
Assignment: determine reported GI50, drug alone for the given compounds.

Req: Return GI50, drug alone for the following compound: CCN1CCN(Cc2ccc(-c3cc4c(N[C@H](C)c5ccccc5)ncnc4[nH]3)cc2)CC1 [AEE788 (NVP-AEE788)]
Resp: > 10 µM

Req: Return reported GI50, drug alone. Input compound: FC(F)(F)c1ccc(Nc2nc3cc(Oc4ccnc(-c5ncc(C(F)(F)F)[nH]5)c4)ccc3[nH]2)cc1 [Raf265 derivative]
Resp: > 10 µM

Req: Assign GI50, drug alone to the following record: O=C(O)c1ccc(Nc2ncc3c(n2)-c2ccc(Cl)cc2C(c2c(F)cccc2F)=NC3)cc1 [MLN8054]
Resp: > 10 µM

Req: Output GI50, drug alone of CNC(=O)c1ccccc1Sc1ccc2c(/C=C/c3ccccn3)n[nH]c2c1 [Axitinib]
Resp: > 10 µM

Req: Identify measured GI50, drug alone corresponding to CCc1cnn2c(NCc3ccc[n+]([O-])c3)cc(N3CCCC[C@H]3CCO)nc12
Resp: 0.0136 µM

Req: Specify reported GI50, drug alone for the compound shown: C[C@@H](N)[C@H]1CC[C@H](C(=O)Nc2ccncc2)CC1.Cl.Cl
Resp: > 10 µM

Req: Give GI50, drug alone for Cc1ccc(F)c(NC(=O)Nc2ccc(-c3cccc4[nH]nc(N)c34)cc2)c1 [Linifanib (ABT-869)]
Resp: > 10 µM

Req: Tell me GI50, drug alone reported for CS(=O)(=O)CCNCc1ccc(-c2ccc3ncnc(Nc4ccc(OCc5cccc(F)c5)c(Cl)c4)c3c2)o1.Cc1ccc(S(=O)(=O)O)cc1.Cc1ccc(S(=O)(=O)O)cc1 [Lapatinib Ditosylate (Tykerb)]
Resp: > 10 µM

Req: Determine its reported GI50, drug alone: CC(C)(C)c1cnc(CSc2cnc(NC(=O)C3CCNCC3)s2)o1
Resp: 0.147 µM

Req: Return GI50, drug alone (reported value) for this compound: O=C(Cc1ccc(-c2ccc(OCCN3CCOCC3)cc2)cn1)NCc1ccccc1 [KX2-391]
Resp: 0.0893 µM

Req: Read off the recorded GI50, drug alone for CC1CCN(C(=O)CC#N)C[C@@H]1N(C)c1ncnc2[nH]ccc12.O=C(O)CC(O)(CC(=O)O)C(=O)O (stereo in doubt)
Resp: > 10 µM

Req: Look up and report measured GI50, drug alone for this entry: Nc1cccc(-c2cc3c(Oc4cccc(O)c4)ncnc3[nH]2)c1 [TWS119]
Resp: > 10 µM

Req: Dear colleague, please send me the reported GI50, drug alone for O=C(NOC[C@H](O)CO)c1ccc(F)c(F)c1Nc1ccc(I)cc1F when you can.
Resp: 3.71 µM

Req: Please report GI50, drug alone for the following compound: CCO.N#CC(=C(/N)Sc1ccccc1N)/C(C#N)=C(\N)Sc1ccccc1N [U0126-EtOH]
Resp: > 10 µM

Req: Recall and state the measured GI50, drug alone for NC1(Cc2ccc(Cl)cc2)CCN(c2ncnc3[nH]ccc23)CC1 .
Resp: > 10 µM

Req: Let me know recorded GI50, drug alone for Cn1cnc2c(F)c(Nc3ccc(Br)cc3Cl)c(C(=O)NOCCO)cc21 [AZD6244 (Selumetinib)] , thanks.
Resp: > 10 µM

Req: Quickly give me recorded GI50, drug alone for CC(C)(C)c1cc(NC(=O)Nc2ccc(-c3cn4c(n3)sc3cc(OCCN5CCOCC5)ccc34)cc2)no1 [Quizartinib (AC220)]
Resp: > 10 µM

Req: Using known records, supply GI50, drug alone for CCc1cc2c(cc1N1CCC(N3CCOCC3)CC1)C(C)(C)c1[nH]c3cc(C#N)ccc3c1C2=O
Resp: > 10 µM

Req: Given Cc1cc(CN2CCN(c3c(Br)cnc4[nH]c(-c5ccc(N6CCN(C)CC6)cc5)nc34)CC2)no1 , respond with its GI50, drug alone.
Resp: 3.35 µM

Req: # return recorded GI50, drug alone for input CN1C(=O)C(Cc2c[nH]c3ccccc23)NC1=S (stereo not given) [Necrostatin-1]
Resp: > 10 µM

Req: Look up GI50, drug alone of CC(C)c1ccccc1Cc1cc(C(=O)Nc2ccc(S(=O)(=O)c3ccccc3C(C)(C)C)cc2)c(O)c(O)c1O [TW-37] and report it.
Resp: > 10 µM

Req: Entry CC1(C)CCC(CN2CCN(c3ccc(C(=O)NS(=O)(=O)c4ccc(NCC5CCOCC5)c([N+](=O)[O-])c4)c(Oc4cnc5[nH]ccc5c4)c3)CC2)=C(c2ccc(Cl)cc2)C1 [ABT-199 (GDC-0199 )] needs its GI50, drug alone filled in; supply it.
Resp: > 10 µM

Req: Kindly indicate its recorded GI50, drug alone. Item: Cc1ccc(S(=O)(=O)Nc2nc3ccccc3nc2Nc2ccc3nsnc3c2)cc1 [XL147]
Resp: > 10 µM

Req: // Input: CC(C)n1nc(-c2cc3cc(O)ccc3[nH]2)c2c(N)ncnc21 [PP242] . Output its GI50, drug alone only.
Resp: 2.91 µM

Req: Output measured GI50, drug alone for this item: O=C1NC(=O)/C(=C/c2ccc(-c3ccc(F)cc3O)o2)S1
Resp: > 10 µM

Req: Check the records and state GI50, drug alone for CCN1CCN(C(=O)Cc2ccc(Nc3ncc(F)c(Nc4ccc(C(=O)Nc5ccccc5Cl)cc4)n3)cc2)CC1 [Aurora A Inhibitor I]
Resp: > 10 µM

Req: Tell us which GI50, drug alone value is on record for N#C/C(=C\c1ccc(O)c(O)c1)C(=O)NCc1ccccc1 [AG-490]
Resp: > 10 µM

Req: Check the records and state GI50, drug alone for Cc1cc2c(F)c(Oc3ncnn4cc(OC[C@@H](C)O)c(C)c34)ccc2[nH]1
Resp: > 10 µM

Req: Identify measured GI50, drug alone associated with CC(C)(C)c1nc(-c2cccc(NS(=O)(=O)c3c(F)cccc3F)c2F)c(-c2ccnc(N)n2)s1
Resp: > 10 µM

Req: Note down GI50, drug alone recorded for Cc1cc(Nc2nc(N[C@@H](C)c3ccc(F)cc3)c(C#N)cc2F)n[nH]1 [AZ 960]
Resp: 3.3 µM

====

- Test system: 786-O
- test.summary: minimum viability across doses, drug + dasatinib, relative to DMSO (fraction); higher = less growth inhibition
- condition: treatment: drug + dasatinib (fixed dose, not stated); 5 days
attribute.measured: minimum viability across doses

Req: // fetch minimum viability across doses given entry CCOC(=O)C1=C(N)Oc2ccc(Br)cc2[C@H]1[C@H](C#N)C(=O)OCC [HA14-1] + Cc1nc(Nc2ncc(C(=O)Nc3c(C)cccc3Cl)s2)cc(N2CCN(CCO)CC2)n1
Resp: 0.624

Req: Give the reported value of minimum viability across doses for this record: CN1CC[C@H](c2c(O)cc(O)c3c(=O)cc(-c4ccccc4Cl)oc23)[C@H](O)C1.Cl [Flavopiridol hydrochloride] + Cc1nc(Nc2ncc(C(=O)Nc3c(C)cccc3Cl)s2)cc(N2CCN(CCO)CC2)n1
Resp: 0.00472

Req: State, in one line, measured minimum viability across doses of c1cncc(CN2CCC(n3ncc4c(N5CCOCC5)nc(-c5ccc6[nH]ccc6c5)nc43)CC2)c1 [WAY-600] + Cc1nc(Nc2ncc(C(=O)Nc3c(C)cccc3Cl)s2)cc(N2CCN(CCO)CC2)n1
Resp: 0.00323

Req: Tell me minimum viability across doses reported for CC(C)NC[C@@H](C(=O)N1CCN(c2ncnc3c2[C@H](C)C[C@H]3O)CC1)c1ccc(Cl)cc1 [GDC-0068] + Cc1nc(Nc2ncc(C(=O)Nc3c(C)cccc3Cl)s2)cc(N2CCN(CCO)CC2)n1
Resp: 0.21
